What %Inh was measured for each of the following?
system: YES; construct: gene YES1; conditions: concentration: 1 μM, replicates: in singlicate; n = 1;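 note: KINOMEscan kinase panel screen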
// units = %; emit number, no label

Exam item: Look at this molecule and give its reported %Inh. "OCCOCCn1ccc2ncnc(Nc3ccc(Oc4cccc(Cl)c4)c(Cl)c3)c21"
Marked response: 0

Exam item: Look at this molecule and give its reported %Inh. Cl.Cl.c1ccc(-c2cc3ccncc3cc2OC2CCNCC2)cc1 [GSK1122999]
Marked response: 15

Exam item: Look at this molecule and give its reported %Inh. "O=C(NCCCN1CCCC1=O)c1cnc(NCc2cc(Cl)ccc2Cl)nc1NC1CCNCC1"
Marked response: 0

Exam item: Look at this molecule and give its reported %Inh. "Fc1ccc(-c2ncn(CCCNCc3ccccc3)c2-c2ccncc2)cc1"
Marked response: 17

Exam item: Look at this molecule and give its reported %Inh. c1ccc(-c2ccc3c(-c4ccnc(Nc5ccc6c(c5)OCCO6)n4)cnn3n2)cc1 [GW818941]
Marked response: 5

Exam item: Look at this molecule and give its reported %Inh. Oc1ccc2ncnc(Nc3ccc(OCc4ccccc4)cc3)c2c1 [GI262866]
Marked response: 0

Exam item: Look at this molecule and give its reported %Inh. Cc1cccc(-c2nc(Nc3ccc4[nH]nnc4c3)c3ccccc3n2)n1 [GW867587]
Marked response: 0

Exam item: Look at this molecule and give its reported %Inh. CCCc1ccc(S(=O)(=O)NC2CCN(c3ccnc(Nc4ccc(OC)cc4)n3)C2)cc1 (stereo not drawn) [GSK1379737]
Marked response: 5

Exam item: Look at this molecule and give its reported %Inh. "O=C(Nc1ccccc1)Nc1ccc(Oc2ccc3nccn3n2)cc1"
Marked response: 11

Exam item: Look at this molecule and give its reported %Inh. CCc1nc(-c2cccc(N(C)S(=O)(=O)c3ccccc3)c2)c(-c2ccnc(Nc3ccc(N4CCN(C(C)=O)CC4)nc3)n2)s1 [GSK1645895]
Marked response: 33

Exam item: Look at this molecule and give its reported %Inh. CC(C)(C)c1ccc(-n2cnc3c(N)ncnc32)cc1 [SKF-97263]
Marked response: 6

Exam item: Look at this molecule and give its reported %Inh. "Fc1cccc(COc2ccc(Nc3ncnc4cc[nH]c34)cc2Cl)c1"
Marked response: 20

Exam item: Look at this molecule and give its reported %Inh. O=C(c1ccc(-c2cc(-c3c[nH]nc3-c3ccccn3)ccn2)cc1)N1CCCC1 [GW792479]
Marked response: 0

Exam item: Look at this molecule and give its reported %Inh. COc1ccc(NC(=O)Nc2ccc(C)c(-c3ccc(C(=O)Nc4ccncc4)cc3)c2)cc1 [GSK1398475]
Marked response: 13

Exam item: Look at this molecule and give its reported %Inh. Cc1cc(N2CCC(NS(=O)(=O)c3ccc(F)cc3)CC2)nc(Nc2cccc(C#N)c2)n1.O=C(O)C(F)(F)F [GSK1653537]
Marked response: 0

Exam item: Look at this molecule and give its reported %Inh. COc1ccc(Nc2nccc(N3CCC(NC(=O)c4cccc(NC(C)=O)c4)C3)n2)cc1 (stereo not drawn) [GSK1379732]
Marked response: 0

Exam item: Look at this molecule and give its reported %Inh. CNc1nccc(-c2c(-c3ccc(F)cc3)ncn2C2CCN(C)CC2)n1 [SB-222903]
Marked response: 0

Exam item: Look at this molecule and give its reported %Inh. Cl.c1ccc(Cn2ncc3cc(Nc4ncnc5ccccc45)ccc32)cc1 [GW273749]
Marked response: 16
